- Measured Target: recombinant human FLAP protein (Homo sapiens)
- Construct: made in house; host or cells: Sf9 insect cells (100,000×g membrane pellet used)
- Sequence (P20292 whole entry): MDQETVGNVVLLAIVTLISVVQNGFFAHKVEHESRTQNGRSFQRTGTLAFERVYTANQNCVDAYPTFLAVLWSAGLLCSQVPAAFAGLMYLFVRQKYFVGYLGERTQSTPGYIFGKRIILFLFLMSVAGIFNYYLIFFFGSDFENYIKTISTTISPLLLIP
- Assay: FLAP binding assay (SPA, displacement of [125I]L-691,831)
- Condition Notes: membranes of sf9 cells expressing recombinant human FLAP; [125I]L-691,831 probe; read-out: FLAP binding IC50
- Procedure: Assessment of Biological Properties 1. Binding Assay Compounds are assessed for the ability to bind to FLAP in a binding assay that measures compound-specific displacement of an iodinated (^125I) FLAP inhibitor via a Scintillation Proximity Assay format (adapted from S. Charleson et al., Mol. Pharmacol., 1992, 41, 873-879). Cell pellets produced from sf9 insect cells expressing recombinant human FLAP protein are resuspended in buffer A [15 mM Tris-HCl (pH 7.5), 2 mM MgCl2, 0.3 mM EDTA, 1 mM PMSF]. […]
Value Type: IC50 (nM)

CC(C)(O)CNc1cnc(-c2nc([C@](C)(c3ccc(-c4cnc(N)nc4)cc3)C3CC3)no2)cn1 [Example 51]
3.9
CN(C)C(=O)Cn1cc(-c2nc(C(C)(c3ccc(-c4ccc(N)nc4C#N)cc3)C3CC3)no2)cn1 (centres unmarked) [Example 296]
12
CC(C)C(C)(c1ccc(-c2cnc(N)nc2)cc1)c1noc(CC(C)(C)O)n1 (centres unmarked) [Example 225]
16
CC(C)C(C)(c1ccc(-c2cnc(N)nc2)cc1)c1noc(N2CCN(CC(C)(C)O)CC2)n1 (centres unmarked) [Example 211]
12

a. CC(C)C(C)(c1ccc(-c2cnc(N)nc2)cc1)c1noc(C2CCOCC2)n1 (centres unmarked) [Example 138]
b. CC(C)C(C)(c1ccc(-c2cnc(N)nc2)cc1)c1noc(C2(C(=O)O)CC2)n1 (centres unmarked) [Example 95]
c. Cn1cc(-c2nc([C@@](C)(c3ccc(-c4cnc(N)nc4)cc3)C3CCC3)no2)cn1 [Example 121]
d. CC(C)C(C)(c1ccc(-c2cnc(N)nc2)cc1)c1noc(-c2cnc(N3CCN(C)CC3)cn2)n1 (centres unmarked) [Example 163]
Input line: Order the records by IC50, with each subsequent value no larger than the one before. Labels, ranked as asked.
Output line: b, a, c, d
(b: 130 nM, a: 15 nM, c: 2.6 nM, d: 0.74 nM)

From: patent US8658661B2
